The reported measurements were obtained from the supplement of paper PMC9112550.

In this section, each of the sequences is paired with its reported shrunken log2 fold change.
Test system: Escherichia coli TOP10
METHOD_SUMMARY: shrunken log2 fold change of peptide-encoding DNA abundance (4.5 h post-induction vs induction); higher = less antimicrobial activity (less host growth inhibition)
MEASUREMENT_CONDITIONS: time post-induction: 4.5 h; library: site-saturation at positions 5, 18, 19, 20

Guide cases for shrunken log2 fold change, answers given:
>>> measured("RRIRTRPPRLPRPRPRPLITPRP")
-0.489
>>> measured("RRIRPRPPRLPRPRPRPRNCPRP")
0.0981
>>> measured("RRIRGRPPRLPRPRPRPDDSPRP")
0.121

Exercise: What value of shrunken log2 fold change on Escherichia coli TOP10 does `RRIRVRPPRLPRPRPRPMYMPRP` have?
Key: -0.748

Exercise: Lookup: shrunken log2 fold change / Escherichia coli TOP10 / `RRIRKRPPRLPRPRPRPACFPRP`
Key: -0.0348

Exercise: Checklist item: shrunken log2 fold change tested on Escherichia coli TOP10, entry `RRIRERPPRLPRPRPRPRNHPRP` , value?
Key: -0.367

Exercise: Test system Escherichia coli TOP10; read-out shrunken log2 fold change; what value for `RRIRLRPPRLPRPRPRPIVMPRP` ?
Key: -0.618

Exercise: Checklist item: shrunken log2 fold change tested on Escherichia coli TOP10, entry `RRIRNRPPRLPRPRPRPWGEPRP` , value?
Key: 0.157

Exercise: Fill in the recorded shrunken log2 fold change for this sequence, with Escherichia coli TOP10 as test system: `RRIRFRPPRLPRPRPRPYQHPRP`
Key: -0.898

----------
Tested on: Escherichia coli TOP10
METHOD_SUMMARY: shrunken log2 fold change of peptide-encoding DNA abundance (4.5 h post-induction vs induction); higher = less antimicrobial activity (less host growth inhibition)
MEASUREMENT_CONDITIONS: time post-induction: 4.5 h; library: site-saturation at positions 5, 18, 19, 20
Entry class follows shrunken log2 fold change: bucket 1: < -0.07; bucket 2: ≥ -0.07 and < 0.1; bucket 3: ≥ 0.1

Example entries and their recorded answers appear below.
>>> classification("RRIRRRPPRLPRPRPRPWGFPRP")
"bucket 3"
>>> classification("RRIRTRPPRLPRPRPRPFASPRP")
"bucket 2"
>>> classification("RRIRMRPPRLPRPRPRPHTAPRP")
"bucket 2"

Exercise: Assign a category based on measured shrunken log2 fold change for `RRIRFRPPRLPRPRPRPQMKPRP` and give only the class name.
Key: bucket 1

Exercise: Kindly state the category for this sequence: `RRIRVRPPRLPRPRPRPHSQPRP`
Key: bucket 3

Exercise: Each sequence maps to one class by shrunken log2 fold change. Which class for `RRIRYRPPRLPRPRPRPVSHPRP` ?
Key: bucket 2

----------
Tested on: Escherichia coli TOP10
METHOD_SUMMARY: shrunken log2 fold change of peptide-encoding DNA abundance (4.5 h post-induction vs induction); higher = less antimicrobial activity (less host growth inhibition)
MEASUREMENT_CONDITIONS: time post-induction: 4.5 h; library: site-saturation at positions 5, 18, 19, 20
QUANTITY: shrunken log2 fold change
Write the number on its own, no unit after it.

# example entries with known answers
>>> measured("RRIRCRPPRLPRPRPRPYHVPRP")
-0.0591
>>> measured("RRIRRRPPRLPRPRPRPASGPRP")
0.302
>>> measured("RRIRQRPPRLPRPRPRPISDPRP")
0.0109

Exercise: Requested read-out shrunken log2 fold change, target or system Escherichia coli TOP10, entry `RRIRRRPPRLPRPRPRPFQMPRP`
Key: -0.138

Exercise: Find the measured shrunken log2 fold change: item `RRIRLRPPRLPRPRPRPRQVPRP` , target or system Escherichia coli TOP10.
Key: -0.0496

Exercise: API: value(readout=shrunken log2 fold change, system=Escherichia coli TOP10) for record `RRIRMRPPRLPRPRPRPHFCPRP`
Key: -0.0487

Exercise: Please tell me: shrunken log2 fold change of `RRIRERPPRLPRPRPRPHYIPRP` , system Escherichia coli TOP10?;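 also: peptides expressed intracellularly from a pBAD plasmid library in pooled LB shake-flask culture, induced with 0.3% L-arabinose, DNA abundance read by NGS, three biological replicates, DESeq2 with apeglm shrinkage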
Key: -0.133

Exercise: Find shrunken log2 fold change (Escherichia coli TOP10) for the entry `RRIRRRPPRLPRPRPRPALLPRP`
Key: -0.0136
